Taken from ChEMBL document CHEMBL1201862.

Tested on: UO-31
Assay: NCI tumour cell line growth inhibition, 48 h
The source made the active and inactive calls. No stated cut-off is given here; in the data, active = GI50 up to about 1.1 µM and inactive = higher.
valueKind: GI50

# GI50 (compound: O/N=C1/Nc2cc(Cl)ccc2C(=S)N2CSCC12 (configuration not stated) ) is > 100 µM (inactive)

# GI50 (compound: CC(C)[C@@H]1CC[C@@H](C)C[C@H]1OC(=O)/C=C1/C2C=CC(O2)C1C(=O)O[C@@H]1C[C@H](C)CC[C@H]1C(C)C (some centres not stated) ) is > 100 µM (inactive)

# GI50 (compound: COc1cc(O)c(C(=O)/C=C/c2ccccc2)c(OC)c1 ) is 5.83 µM (inactive)

# GI50 (compound: N/N=C(\N)SCc1ccc(N=C=S)cc1 ) is > 100 µM (inactive)

# GI50 (compound: COc1nc2ncc([C@@H](OC(C)=O)[C@@H](COC(C)=O)OC(C)=O)nc2c(=O)n1C ) is > 100 µM (inactive)

# GI50 (compound: CO/C(=N\N=C\c1cc(OC)ccc1OC)c1ccncc1 ) is > 10 µM (inactive)

# GI50 (compound: CN(/N=C/c1ccnc2ccccc12)c1ccc(Cl)cc1[N+](=O)[O-] ) is > 100 µM (inactive)

# GI50 (compound: COc1ccc2c(c1)/C(=C\c1cccc(/C=C3/C(=O)Nc4ccc(OC)cc43)n1)C(=O)N2 ) is 1.67 µM (inactive)

# GI50 (compound: O/N=C1/C2CC3CC1(c1ccccc1)CC(/C3=N/O)/C2=N\O (configuration not stated) ) is > 100 µM (inactive)

# GI50 (compound: O=C(n1c2ccccc2c2nnc(S)nc21)C(F)(F)F ) is > 100 µM (inactive)

# GI50 (compound: COC(=O)C1=C(C(=O)OC)C2(c3ccccc3)OC1(c1ccccc1)c1cc3ccccc3cc12 ) is 1.42 µM (inactive)

# GI50 (compound: COc1ccc(NS(=O)(=O)c2ccc(NC(NC(=O)CC(C)C)(C(F)(F)F)C(F)(F)F)cc2)nn1 ) is > 100 µM (inactive)
